- System: Sweetpotato Whitefly-Crawler (WF) (Bemisia tabaci) (BEMITA)
- test method notes: Insecticidal test for Sweetpotato Whitefly-Crawler (WF) in foliar spray assay on cotton plants
- Assay type: in vivo
- measurement conditions: 216 h, 200 ppm foliar spray on cotton plants, graded after 9 days, Abbott corrected % control, read-out: WF 200 ppm, % Control (or Mortality) rating
The entries below are paired with their reported mortality at 200 ppm.
readout label: mortality at 200 ppm

| compound | target or test system | readout label | result |
| --- | --- | --- | --- |
| CCN(C(=O)CCN(CC(F)F)C(=O)CCC(F)(F)F)c1cn(-c2cccnc2)nc1Cl | Sweetpotato Whitefly-Crawler (WF) (Bemisia tabaci) (BEMITA) | mortality at 200 ppm | 80 to 100% |
| CCN(C(=O)CC/C(C)=N/OCc1ccc(C(F)(F)F)nc1)c1cn(-c2cccnc2)nc1Cl | Sweetpotato Whitefly-Crawler (WF) (Bemisia tabaci) (BEMITA) | mortality at 200 ppm | 80 to 100% |
| CCN(C(=O)CN1CCSC1=O)c1cn(-c2cccnc2)nc1Cl | Sweetpotato Whitefly-Crawler (WF) (Bemisia tabaci) (BEMITA) | mortality at 200 ppm | 80 to 100% |
| CCN(C(=O)C1CCN(C(=O)C(F)(F)F)CC1)c1cn(-c2cccnc2)nc1Cl | Sweetpotato Whitefly-Crawler (WF) (Bemisia tabaci) (BEMITA) | mortality at 200 ppm | 0 to 80% |
| CCN(C(=O)CC/C(=N\OCC1CC(F)(F)C1)c1cccs1)c1cn(-c2cccnc2)nc1Cl | Sweetpotato Whitefly-Crawler (WF) (Bemisia tabaci) (BEMITA) | mortality at 200 ppm | 0 to 80% |
| CCN(C(=O)C1CCN(C(C)=O)C1)c1cn(-c2cccnc2)nc1Cl (centres unmarked) | Sweetpotato Whitefly-Crawler (WF) (Bemisia tabaci) (BEMITA) | mortality at 200 ppm | 0 to 80% |
| CCN(C(=O)CCCC1CN(CC2CC2(F)F)C1=O)c1cn(-c2cccnc2)nc1Cl (centres unmarked) | Sweetpotato Whitefly-Crawler (WF) (Bemisia tabaci) (BEMITA) | mortality at 200 ppm | 80 to 100% |
| CCN(C(=O)CCC(=O)NCc1ccncc1)c1cn(-c2cccnc2)nc1Cl | Sweetpotato Whitefly-Crawler (WF) (Bemisia tabaci) (BEMITA) | mortality at 200 ppm | 80 to 100% |

###

The entries below are paired with their reported mortality at 200 ppm.
- Test system: Sweetpotato Whitefly-Crawler (WF) (Bemisia tabaci) (BEMITA)
- test method notes: Insecticidal test for Sweetpotato Whitefly-Crawler (WF) in foliar spray assay on cotton plants
- Type: in vivo
- measurement conditions: 216 h, 200 ppm foliar spray on cotton plants, graded after 9 days, Abbott corrected % control, read-out: WF 200 ppm, % Control (or Mortality) rating

| compound | mortality at 200 ppm |
| --- | --- |
| CCN(C(=O)CCC(=O)N(C)Cc1ccc(F)cc1)c1cn(-c2cccnc2)nc1Cl | 80 to 100% |
| CCN(C(=O)C1CCN(C(=O)CC(F)(F)F)C1)c1cn(-c2cccnc2)nc1Cl (centres unmarked) | 0 to 80% |
| CCN(C(=O)CCCN1CCOC1=O)c1cn(-c2cccnc2)nc1Cl | 80 to 100% |
| CCN(C(=O)CCNC(=O)/C=C/C(F)(F)F)c1cn(-c2cccnc2)nc1Cl | 80 to 100% |
| CCSC(=O)N(C)CCC(=O)N(CC)c1cn(-c2cccnc2)nc1Cl | 0 to 80% |
| CCN(C(=O)CCC1CCN(CCC2CC2(F)F)C1=O)c1cn(-c2cccnc2)nc1Cl (centres unmarked) | 80 to 100% |
| CCN(C(=O)C(C)C/C=N/OCCC1CC1(F)F)c1cn(-c2cccnc2)nc1Cl (centres unmarked) | 80 to 100% |
| CCN(C(=O)CCC1CN(CC2CC2(F)F)C1=O)c1cn(-c2cccnc2)nc1Cl (centres unmarked) | 80 to 100% |
| CCN(C(=O)C(C)OC(=O)CC(F)(F)F)c1cn(-c2cccnc2)nc1Cl (centres unmarked) | 0 to 80% |
| CCN(C(=O)CCC(=O)N(C)CC#N)c1cn(-c2cccnc2)nc1Cl | 80 to 100% |
| CC(=O)N1CCC(C(=O)N(C)c2cn(-c3cccnc3)nc2Cl)CC1 | 80 to 100% |
| CCN(C(=O)CCCC1CN(C)C1=O)c1cn(-c2cccnc2)nc1Cl (centres unmarked) | 80 to 100% |
| CCN(C(=O)CCN(CC(F)F)C(=O)C1(C)CC1(F)F)c1cn(-c2cccnc2)nc1Cl (centres unmarked) | 80 to 100% |
| CCN(C(=O)CC1CNC1=O)c1cn(-c2cccnc2)nc1Cl (centres unmarked) | 80 to 100% |
| CCN(C(=O)C1CCN(C(=O)CCC(F)(F)F)CC1)c1cn(-c2cccnc2)nc1Cl | 0 to 80% |
| CCN(C(=O)CCC(=O)N(C)Cc1ccco1)c1cn(-c2cccnc2)nc1Cl | 80 to 100% |
| CCN(C(=O)C1CCN(C(=O)OC(C)(C)C)CC1)c1cn(-c2cccnc2)nc1Cl | 80 to 100% |
| CCN(C(=O)C(C)N(C)C(=O)N(C)C)c1cn(-c2cccnc2)nc1Cl (centres unmarked) | 80 to 100% |
| CCN(C(=O)CCNC(=O)OC(C)(C)C)c1cn(-c2cccnc2)nc1Cl | 80 to 100% |
| CCN(C(=O)CC/C(C)=N\O)c1cn(-c2cccnc2)nc1Cl | 80 to 100% |
| CCN(C(=O)C1CN(C(=O)CCC#N)C1)c1cn(-c2cccnc2)nc1Cl | 0 to 80% |
| CCN(C(=O)CCNC(=O)C(C)CC(F)(F)F)c1cn(-c2cccnc2)nc1Cl (centres unmarked) | 80 to 100% |
| CN(C(=O)[C@@H]1C=C[C@H](NC(=O)C(F)(F)F)C1)c1cn(-c2cccnc2)nc1Cl | 80 to 100% |
| CCN(C(=O)CC/C(C)=N\OCCC1CC1(F)F)c1cn(-c2cccnc2)nc1Cl (centres unmarked) | 80 to 100% |
| CCN(C(=O)C(C)OC(C)=O)c1cn(-c2cccnc2)nc1Cl (centres unmarked) | 80 to 100% |
| CCN(C(=O)C1CCCN(C(=O)C(C)C)C1)c1cn(-c2cccnc2)nc1Cl (centres unmarked) | 80 to 100% |
| CCN(C(=O)C(C)C/C(C)=N\OCCC1CC1(F)F)c1cn(-c2cccnc2)nc1Cl (centres unmarked) | 0 to 80% |
| CCOC(=O)N(C)CCC(=O)N(CC)c1cn(-c2cccnc2)nc1Cl | 80 to 100% |
| CCN(C(=O)CNC(=O)C1(C)CC1(F)F)c1cn(-c2cccnc2)nc1Cl (centres unmarked) | 80 to 100% |
| CCSC(=O)N(C)C(C)C(=O)N(CC)c1cn(-c2cccnc2)nc1Cl (centres unmarked) | 0 to 80% |
| CCN(C(=O)CCNC(=O)C1CC1(F)F)c1cn(-c2cccnc2)nc1Cl (centres unmarked) | 80 to 100% |
| CCN(C(=O)C1CCN(C(=O)CCC(F)(F)F)C1)c1cn(-c2cccnc2)nc1Cl (centres unmarked) | 80 to 100% |
| CCN(C(=O)CCCC1CNC1=O)c1cn(-c2cccnc2)nc1Cl (centres unmarked) | 80 to 100% |
| CCN(C(=O)CCC(C)=NOC)c1cn(-c2cccnc2)nc1Cl (mixture of isomers) | 80 to 100% |
| CCN(C(=O)C(C)OC(=O)N(C)OC)c1cn(-c2cccnc2)nc1Cl (centres unmarked) | 80 to 100% |
